- MEASURED TARGET: T1, HEK293/hPRLR (Homo sapiens, UniProt P16471)
- T1 construct: HA; expressed in transfected cells; host or cells: HEK293
- T1 sequence (P16471 25-622): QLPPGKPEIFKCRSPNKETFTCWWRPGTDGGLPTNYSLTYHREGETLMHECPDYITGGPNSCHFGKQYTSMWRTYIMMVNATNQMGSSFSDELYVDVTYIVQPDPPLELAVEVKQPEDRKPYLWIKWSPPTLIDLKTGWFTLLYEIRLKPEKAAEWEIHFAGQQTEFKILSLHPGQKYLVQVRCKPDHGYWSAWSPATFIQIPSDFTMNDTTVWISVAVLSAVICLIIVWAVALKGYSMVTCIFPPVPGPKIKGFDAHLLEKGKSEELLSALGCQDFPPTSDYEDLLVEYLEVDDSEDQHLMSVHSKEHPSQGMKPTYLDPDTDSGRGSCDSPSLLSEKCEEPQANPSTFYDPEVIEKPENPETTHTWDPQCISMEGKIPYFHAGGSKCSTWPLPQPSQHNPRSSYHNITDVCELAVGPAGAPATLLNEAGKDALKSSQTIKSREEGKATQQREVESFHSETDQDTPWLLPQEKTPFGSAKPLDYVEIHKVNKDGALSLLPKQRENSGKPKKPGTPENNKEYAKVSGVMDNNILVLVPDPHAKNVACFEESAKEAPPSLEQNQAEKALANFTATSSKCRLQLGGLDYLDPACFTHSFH
- METHOD NOTES: FACS cell surface binding
For each entry below, report its FACS Cell Binding (Fold Above Background) value.
Expressed in Fold Above Background, but write only the number.

Lookup: Look up FACS Cell Binding (Fold Above Background): H1H6960N: human IgG1 Fc form of H2M6960N; anti-PRLR; HCVR/LCVR SEQ ID NOs 322/330 (antibody, V domains shown, human IgG1 Fc) VH: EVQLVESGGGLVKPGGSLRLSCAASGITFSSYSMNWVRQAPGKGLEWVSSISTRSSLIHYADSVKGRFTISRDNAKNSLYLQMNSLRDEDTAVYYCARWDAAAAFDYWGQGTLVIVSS VL: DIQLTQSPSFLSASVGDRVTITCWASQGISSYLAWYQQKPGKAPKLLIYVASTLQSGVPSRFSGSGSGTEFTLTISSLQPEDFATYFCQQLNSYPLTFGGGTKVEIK
Found: 29

Lookup: Which FACS Cell Binding (Fold Above Background) value is on record for H1H6774P: anti-PRLR antibody, human IgG1 Fc; HCVR/LCVR SEQ ID NOs 34/42 (antibody, V domains shown, human IgG1 Fc) VH: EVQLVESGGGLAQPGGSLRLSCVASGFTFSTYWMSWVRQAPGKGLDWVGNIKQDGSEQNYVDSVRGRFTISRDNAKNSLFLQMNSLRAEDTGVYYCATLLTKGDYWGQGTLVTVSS VL: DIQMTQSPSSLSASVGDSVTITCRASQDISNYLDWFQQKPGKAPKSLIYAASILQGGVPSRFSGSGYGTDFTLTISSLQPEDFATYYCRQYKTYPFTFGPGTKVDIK ?
Found: 1

Lookup: Can you look up the measured FACS Cell Binding (Fold Above Background) of H1H6762P: anti-PRLR antibody, human IgG1 Fc; HCVR/LCVR SEQ ID NOs 2/10 (antibody, V domains shown, human IgG1 Fc) VH: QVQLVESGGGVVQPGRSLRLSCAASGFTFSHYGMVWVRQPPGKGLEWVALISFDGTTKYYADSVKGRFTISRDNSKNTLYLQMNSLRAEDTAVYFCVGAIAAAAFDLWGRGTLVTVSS VL: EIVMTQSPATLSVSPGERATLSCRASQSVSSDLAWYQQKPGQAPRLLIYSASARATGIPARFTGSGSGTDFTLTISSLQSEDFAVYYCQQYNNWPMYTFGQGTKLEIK for me?
Found: 36

Lookup: // FACS Cell Binding (Fold Above Background) lookup, key: H1H6976N: human IgG1 Fc form of H2M6976N; anti-PRLR; HCVR/LCVR SEQ ID NOs 386/394 (antibody, V domains shown, human IgG1 Fc) VH: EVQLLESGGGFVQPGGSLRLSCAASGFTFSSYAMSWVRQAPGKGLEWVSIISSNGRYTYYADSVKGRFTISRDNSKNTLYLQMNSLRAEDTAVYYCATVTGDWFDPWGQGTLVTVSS VL: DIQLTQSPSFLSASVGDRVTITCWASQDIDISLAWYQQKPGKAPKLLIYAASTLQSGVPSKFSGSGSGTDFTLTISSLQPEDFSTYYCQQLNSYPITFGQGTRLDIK
Found: 8

Ref: patent US9688764B2
